Assign Population Pyknosed Nuclei (%) to each entry below.
System: U2OS
Assay notes: Multiplex assay against U2OS
Format: toxicity, cell-based
Assay context: human, 12 h, 1 µM, compound concentration 1 uM, replicate 1
Numbers only, in %.

Known Population Pyknosed Nuclei (%) results, listed for orientation:
CCCCCNC(=N)N/N=C/c1c[nH]c2ccc(OC)cc12.O=C(O)/C=C\C(=O)O [TEGASEROD MALEATE]: 11
CCOC(=O)CCNc1cc(N2CCc3ccccc3CC2)nc(-c2ccccn2)n1: 6
Cc1ccc(S(=O)(=O)NC2c3ccccc3Oc3ccccc32)cc1: 10

Your task in this section: give Population Pyknosed Nuclei (%) for each listed record.
1. N#Cc1cccc(C(=O)Nc2cc(-c3ccccc3)nn2-c2ccccc2)c1
2. CC(/C=C1\SC(=S)N(CCCC(=O)Nc2ccc(C(=O)O)c(O)c2)C1=O)=C\c1ccccc1

12
13

Your task in this section: give Population Pyknosed Nuclei (%) for each listed record.
1. Oc1cccc(-c2nc(N3CCOCC3)c3oc4ncccc4c3n2)c1 [PI-103]
2. N#CCNC(=O)c1ccc(-c2ccnc(Nc3ccc(N4CCOCC4)cc3)n2)cc1 [MOMELOTINIB]
3. Cl.NC[C@@H]1O[C@H](C23CC4CC(CC(C4)C2)C3)Cc2c1ccc(O)c2O
4. CCOc1ccn(-c2ccc(F)cc2)c(=O)c1C(=O)Nc1ccc(Oc2ccnc(N)c2Cl)c(F)c1 [BMS-777607]

[12, 10, 9, 6]

---

System: U2OS
Assay notes: Multiplex assay against U2OS
Format: toxicity, cell-based
Assay context: human, 24 h, 1 µM, compound concentration 1 uM, replicate 1
Result type: Population Membrane Permeable-Phenotype (%)

C=CC(=O)Nc1cc(-n2c(=O)ccc3cnc4ccc(-c5ccc(NS(C)(=O)=O)cc5)cc4c32)ccc1C: 4%
CC[C@H](Nc1ncnc2[nH]cnc12)c1nc2cccc(F)c2c(=O)n1-c1ccccc1: 28%
N#CCNC(=O)c1ccc(-c2ccnc(Nc3ccc(N4CCOCC4)cc3)n2)cc1: 10%
Oc1cccc(-c2nc(N3CCOCC3)c3oc4ncccc4c3n2)c1: 7%
Cc1c(P(=S)(c2ccccc2)c2ccccc2)n2ccccc2[n+]1C/C=C/c1ccccc1.[Br-]: 12%

Consider the record given below.
Request: Population Membrane Permeable-Phenotype (%), test system U2OS, entry `Cc1ccc(NC(=O)Nc2cc(C(F)(F)F)ccc2F)cc1Nc1ccc2c(c1)NC(=O)/C2=C\c1ccc[nH]1`
85%

---

Assign Population Pyknosed Nuclei (%) to each entry below.
Tested on: HEK-293T
Assay notes: Multiplex assay against HEK293T
Assay type: toxicity, cell-based
Assay context: human, 12 h, 10 µM, compound concentration 10 uM, replicate 1
One number for each entry, in %.

Cc1c(P(=S)(c2ccccc2)c2ccccc2)n2ccccc2[n+]1C/C=C/c1ccccc1.[Br-]: 65

Your task in this section: give Population Pyknosed Nuclei (%) for each listed record.
1. N#CCNC(=O)c1ccc(-c2ccnc(Nc3ccc(N4CCOCC4)cc3)n2)cc1
2. CC[C@@]1(O)C(=O)OCc2c1cc1n(c2=O)Cc2cc3ccccc3nc2-1
3. CC[C@H](Nc1ncnc2[nH]cnc12)c1nc2cccc(F)c2c(=O)n1-c1ccccc1
4. CC(C)C[C@H](NC(=O)[C@H](Cc1ccccc1)NC(=O)CNC(=O)CNC(=O)[C@@H](N)Cc1ccc(O)cc1)C(=O)O

1. 38
2. 26
3. 23
4. 57

---

Assign Population Hoechst High Intensity Objects (%) to each entry below.
Tested on: HEK-293T
Assay notes: Multiplex assay against HEK293T
Type: toxicity, cell-based
Assay context: human, 12 h, 1 µM, compound concentration 1 uM, replicate 2
Give bare numbers, in %.

Known Population Hoechst High Intensity Objects (%) results, listed for orientation:
N#CCNC(=O)c1ccc(-c2ccnc(Nc3ccc(N4CCOCC4)cc3)n2)cc1 [MOMELOTINIB]: 2
Cl.NC[C@@H]1O[C@H](C23CC4CC(CC(C4)C2)C3)Cc2c1ccc(O)c2O: 2
CNC(=O)Nc1ccc2c(c1)CC[C@@]21OC(=O)N(CC(=O)N(Cc2ccc(F)cc2)[C@@H](C)C(F)(F)F)C1=O [A-485]: 2

Consider the record given below.
Please look up its Population Hoechst High Intensity Objects (%): `CC(/C=C1\SC(=S)N(CCCC(=O)Nc2ccc(C(=O)O)c(O)c2)C1=O)=C\c1ccccc1`
2

---

System: U2OS
Assay notes: Multiplex assay against U2OS
Type: toxicity, cell-based
Assay context: human, 48 h, 1 µM, compound concentration 1 uM, replicate 2
// assign 1.0 if Population Membrane Permeable-Phenotype (%) falls strictly below 5%, else 0.0 (ties count as 0.0)

Here's what some known entries look like.
CC(C)[C@H](CO)Nc1nc(Nc2cccc(Cl)c2)c2ncn(C(C)C)c2n1: 0.0
N#Cc1cccc(C(=O)Nc2cc(-c3ccccc3)nn2-c2ccccc2)c1: 1.0
C=CC(=O)Nc1cc(-n2c(=O)ccc3cnc4ccc(-c5ccc(NS(C)(=O)=O)cc5)cc4c32)ccc1C: 1.0
C[C@@H](Oc1cc(-n2cnc3ccc(CN4CCN(C)CC4)cc32)sc1C(N)=O)c1ccccc1C(F)(F)F: 0.0
CCCCCNC(=N)N/N=C/c1c[nH]c2ccc(OC)cc12.O=C(O)/C=C\C(=O)O [TEGASEROD MALEATE]: 0.0

Lab log: compare recorded Population Membrane Permeable-Phenotype (%) with 5%; is it strictly lower for `Cc1ccc(S(=O)(=O)NC2c3ccccc3Oc3ccccc32)cc1` ?
0.0

---

System: U2OS
Assay notes: Multiplex assay against U2OS
Format: toxicity, cell-based
Assay context: human, 12 h, 10 µM, compound concentration 10 uM, replicate 1
Note to self: values exactly at 6% are y. So Population Hoechst High Intensity Objects (%) at or above 6% is y, below is n.

Cc1ccc(NC(=O)Nc2cc(C(F)(F)F)ccc2F)cc1Nc1ccc2c(c1)NC(=O)/C2=C\c1ccc[nH]1: n
Cl.Cn1c2c(c3ccc(Cl)c(Cl)c31)C(C#N)C1(CCNCC1)NC2=O (stereo not given): n
c1ccc(-c2oc3ncnc(NC[C@@H]4CCCO4)c3c2-c2ccccc2)cc1: y

Has `CCOC(=O)CCNc1cc(N2CCc3ccccc3CC2)nc(-c2ccccn2)n1` a recorded Population Hoechst High Intensity Objects (%) greater than or equal to 6%?
n

---

System: Fibroblast
Assay notes: Multiplex assay against human fibroblast
Format: toxicity, cell-based
Assay context: 12 h, 1 µM, compound concentration 1 uM, replicate 2
Assign Population Tubulin-Different-Phenotype (%) to each entry below.
Give bare numbers, in %.

CC(C)c1cc(Nc2nc(N3CCC[C@H](N)C3)ncc2C(N)=O)cc(C(C)C)n1: 96
Cl.NC[C@@H]1O[C@H](C23CC4CC(CC(C4)C2)C3)Cc2c1ccc(O)c2O: 10
CCCCCNC(=N)N/N=C/c1c[nH]c2ccc(OC)cc12.O=C(O)/C=C\C(=O)O [TEGASEROD MALEATE]: 14

Your task in this section: give Population Tubulin-Different-Phenotype (%) for each listed record.
1. Oc1cccc(-c2nc(N3CCOCC3)c3oc4ncccc4c3n2)c1
2. CC(/C=C1\SC(=S)N(CCCC(=O)Nc2ccc(C(=O)O)c(O)c2)C1=O)=C\c1ccccc1
3. CC[C@H](Nc1ncnc2[nH]cnc12)c1nc2cccc(F)c2c(=O)n1-c1ccccc1
4. CCCc1cc(C)[nH]c(=O)c1CNC(=O)c1cc(-c2ccc(N3CCN(C(C)C)CC3)nc2)cc2c1cnn2C(C)C

[0, 7, 53, 94]

Your task in this section: give Population Tubulin-Different-Phenotype (%) for each listed record.
1. Cc1c(P(=S)(c2ccccc2)c2ccccc2)n2ccccc2[n+]1C/C=C/c1ccccc1.[Br-]
2. N#CCNC(=O)c1ccc(-c2ccnc(Nc3ccc(N4CCOCC4)cc3)n2)cc1

1. 31
2. 11

---

Test system: Fibroblast
Assay notes: Multiplex assay against human fibroblast
Format: toxicity, cell-based
Assay context: 48 h, 1 µM, compound concentration 1 uM, replicate 2
Assign Population Normal (%) to each entry below.
Numbers only, in %.

CCCc1cc(C)[nH]c(=O)c1CNC(=O)c1cc(-c2ccc(N3CCN(C(C)C)CC3)nc2)cc2c1cnn2C(C)C: 90
C[C@@H](Oc1cc(-n2cnc3ccc(CN4CCN(C)CC4)cc32)sc1C(N)=O)c1ccccc1C(F)(F)F: 87
Oc1cccc(-c2nc(N3CCOCC3)c3oc4ncccc4c3n2)c1: 85
CCCCN(CC)c1nc(C)nc2c1c(C)cn2-c1c(C)cc(C)cc1C.Cl: 93
CCCCCNC(=N)N/N=C/c1c[nH]c2ccc(OC)cc12.O=C(O)/C=C\C(=O)O [TEGASEROD MALEATE]: 81
C=CC(=O)Nc1cc(-n2c(=O)ccc3cnc4ccc(-c5ccc(NS(C)(=O)=O)cc5)cc4c32)ccc1C: 87
CN(c1cc(C(F)(F)F)nc(OCCC(=O)O)n1)c1cccc2c1CCC2: 90

Consider the record given below.
Please look up its Population Normal (%): `Cc1ccc(S(=O)(=O)NC2c3ccccc3Oc3ccccc32)cc1`
85

Cited source for all entries: ChEMBL document CHEMBL4689842
